# TEST_TARGET: T1, CXCR4 receptor (human, UniProt P61073 1-352)
# T1 construct: whole, on cells; Endogenous receptor on human cells
# T1 sequence (P61073 whole entry): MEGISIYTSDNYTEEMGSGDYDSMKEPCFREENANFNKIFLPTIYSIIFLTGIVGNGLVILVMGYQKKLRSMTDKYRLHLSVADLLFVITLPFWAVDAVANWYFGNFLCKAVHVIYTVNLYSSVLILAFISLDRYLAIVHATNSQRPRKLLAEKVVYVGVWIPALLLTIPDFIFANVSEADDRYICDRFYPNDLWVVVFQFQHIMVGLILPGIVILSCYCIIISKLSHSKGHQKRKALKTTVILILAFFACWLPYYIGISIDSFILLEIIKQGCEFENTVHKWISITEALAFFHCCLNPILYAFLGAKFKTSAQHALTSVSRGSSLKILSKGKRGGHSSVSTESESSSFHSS
# TEST_NAME: displacement of 125I-CXCL12 from Jurkat cells, filter binding
Numbered stars: 1 amine (or outer) side, 2 acyl side, 3 side chain; on linkers, the order of the positions; unused ones are H or OH. Bridge positions count the residues as written; N and C are the ends. Square brackets hold non-standard residues; d marks the D form. * marks the point of attachment. deaminoTMG = tetramethylguanyl on 5-aminopentanoyl (deaminoTMG-APA, formula II); guanyl = guanyl, N-terminal group, N=C(N)*; 2Nal = N[C@@H](Cc1ccc2ccccc2c1)C(=O)O; Glutaryl = O=C(CCCC(=O)[*:2])[*:1]; Benzoyl(4-F) = O=C(c1ccc(F)cc1)*; Cit = NC(=O)NCCC[C@H](N)C(=O)O; Suc = O=C(CCC(=O)[*:2])[*:1]; Ava = NCCCCC(=O)O
PARAMETER_MEASURED: log10 IC50 (log10 of the value in nM)
In our notation, the value equals log10 of IC50 in nM.

Solved cases (9 shown):
BINDER | log10 IC50
guanyl-R[2Nal]CY[Cit]K[dE]PYR[Cit]CR-NH2 (disulfide 3-12; also: acetate salt) [TF9] | 2.40
{AZT-Glutaryl}-R[2Nal]CY[Cit]K[dE]PYR[Cit]CR-NH2 (disulfide 3-12; also: acetate salt) [TF14] | 1.69
H-RR[2Nal]CYEK[dK]PYR[Cit]CR-OH (disulfide 4-13 (inferred); not fully specified; printed as H-Arg-Arg-Nal-Cys-Tyr-Glu-Lys-DLys-Pro-Tyr-Arg-Cit-Cys-Arg-OH; also: acetate salt) [TE14003] | 0.70
Suc-R[2Nal]CY[Cit]K[dE]PYR[Cit]CR-NH2 (disulfide 3-12; also: acetate salt) [TF10] | 1.68
XRRXCYXKXPYRXCRX (N-terminal tetramethylguanyl; Nal (L-3-(2-naphthyl)alanine) at 3; Cit (L-citrulline) at 6 and 12; D-Cit (D-citrulline) at 8; disulfide Cys4-Cys13; C-terminal amide (-NH2)) [TF18] | 0.90
{deaminoTMG-Ava}-R[2Nal]CY[Cit]K[dE]PYR[Cit]CR-NH2 (disulfide 3-12; also: acetate salt) [TF12] | 0.66
{5‑aminopentanoyl}-R[2Nal]CY[Cit]K[dE]PYR[Cit]CR-NH2 (disulfide 3-12; also: acetate salt) [TF7] | 0.76
H-RE[2Nal]CYRK[dK]PYR[Cit]CR-OH (disulfide 4-13; also: acetate salt) [TE14002] | 2.83
XRRXCYXKXPYRXCRX (N-terminal 6-aminohexanoyl (ACA); Nal (L-3-(2-naphthyl)alanine) at 3; Cit (L-citrulline) at 6 and 12; D-Cit (D-citrulline) at 8; disulfide Cys4-Cys13; C-terminal amide (-NH2)) [TF19] | 0.65

Next, consider the following binder.
IN: Would you kindly share the measured log10 IC50 for {Benzoyl(4-F)}-RR[2Nal]CY[Cit]K[dE]PYR[Cit]CR-NH2 (disulfide 4-13; also: acetate salt) [TF5] ?
OUT: 0.45
